Item-by-item account of IC50
targetOrTestSystem: T1, human soluble αvβ5 protein (extracellular domains of human αv and β5 integrin subunits) (human, UniProt P06756 31-992; P18084 24-719)
T1 construct: also called biotin-αvβ5; hsαvβ5
T1 sequence (P06756 31-992 limits assumed, chain 1 of 2): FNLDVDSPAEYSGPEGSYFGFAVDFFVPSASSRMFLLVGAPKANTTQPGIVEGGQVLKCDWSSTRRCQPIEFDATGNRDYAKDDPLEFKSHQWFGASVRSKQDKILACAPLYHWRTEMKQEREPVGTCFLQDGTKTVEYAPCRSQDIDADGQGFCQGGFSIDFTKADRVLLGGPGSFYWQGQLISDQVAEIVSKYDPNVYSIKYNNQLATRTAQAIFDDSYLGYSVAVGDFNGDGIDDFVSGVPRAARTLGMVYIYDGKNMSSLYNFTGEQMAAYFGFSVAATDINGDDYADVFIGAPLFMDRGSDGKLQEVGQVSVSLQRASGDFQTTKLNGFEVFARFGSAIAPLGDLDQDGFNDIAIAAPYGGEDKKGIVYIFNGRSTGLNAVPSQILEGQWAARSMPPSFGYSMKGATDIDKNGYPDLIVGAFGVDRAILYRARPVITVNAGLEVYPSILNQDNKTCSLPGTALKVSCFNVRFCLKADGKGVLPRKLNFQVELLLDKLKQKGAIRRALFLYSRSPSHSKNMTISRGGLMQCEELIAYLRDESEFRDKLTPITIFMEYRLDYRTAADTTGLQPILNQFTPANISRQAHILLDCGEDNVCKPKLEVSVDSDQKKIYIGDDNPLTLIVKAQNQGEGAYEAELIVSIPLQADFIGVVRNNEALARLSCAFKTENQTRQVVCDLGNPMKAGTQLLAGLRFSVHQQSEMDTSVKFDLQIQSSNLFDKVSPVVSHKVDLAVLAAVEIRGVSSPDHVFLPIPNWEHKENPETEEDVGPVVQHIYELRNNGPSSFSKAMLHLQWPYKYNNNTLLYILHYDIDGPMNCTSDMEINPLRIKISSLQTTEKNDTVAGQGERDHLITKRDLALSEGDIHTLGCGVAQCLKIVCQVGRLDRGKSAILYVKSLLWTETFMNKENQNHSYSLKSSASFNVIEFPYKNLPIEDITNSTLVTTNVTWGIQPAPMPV
T1 sequence (P18084 24-719 limits assumed, chain 2 of 2): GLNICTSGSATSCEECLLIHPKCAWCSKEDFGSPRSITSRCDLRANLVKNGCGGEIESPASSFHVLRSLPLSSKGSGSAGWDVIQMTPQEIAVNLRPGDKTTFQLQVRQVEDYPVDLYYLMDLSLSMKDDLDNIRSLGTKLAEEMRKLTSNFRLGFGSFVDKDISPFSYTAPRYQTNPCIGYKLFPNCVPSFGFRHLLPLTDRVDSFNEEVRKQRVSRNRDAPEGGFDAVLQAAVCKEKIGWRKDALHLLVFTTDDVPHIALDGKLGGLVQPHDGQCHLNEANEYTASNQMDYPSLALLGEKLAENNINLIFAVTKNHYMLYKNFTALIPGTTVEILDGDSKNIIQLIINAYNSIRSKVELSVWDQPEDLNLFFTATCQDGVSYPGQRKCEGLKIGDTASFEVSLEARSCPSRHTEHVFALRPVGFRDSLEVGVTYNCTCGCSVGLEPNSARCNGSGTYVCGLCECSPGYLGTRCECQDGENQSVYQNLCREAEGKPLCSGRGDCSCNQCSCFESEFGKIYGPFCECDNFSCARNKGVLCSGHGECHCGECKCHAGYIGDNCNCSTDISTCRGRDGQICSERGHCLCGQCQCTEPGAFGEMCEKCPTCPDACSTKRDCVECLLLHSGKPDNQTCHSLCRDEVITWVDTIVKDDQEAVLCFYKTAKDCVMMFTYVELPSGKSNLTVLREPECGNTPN
assay: competition ELISA against 1 nM murine ALULA on coated soluble human αvβ5
Enter your answer as a number in nM; do not include the unit.

Some binders with known IC50 results, for comparison:
VH5/VL1 Agly-hIgG1(T299A) (antibody, V domains shown, also called H5/L1) VH: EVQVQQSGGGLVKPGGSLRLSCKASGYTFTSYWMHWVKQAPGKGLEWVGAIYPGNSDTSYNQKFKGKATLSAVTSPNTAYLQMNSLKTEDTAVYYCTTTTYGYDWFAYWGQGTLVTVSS VL: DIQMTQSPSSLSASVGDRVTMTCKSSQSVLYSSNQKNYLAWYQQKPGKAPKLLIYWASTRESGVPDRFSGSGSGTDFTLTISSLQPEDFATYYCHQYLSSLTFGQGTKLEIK
3
VH5/VL2 Agly-hIgG1(T299A) (antibody, V domains shown, also called H5/L2 (Agly-IgG1)) VH: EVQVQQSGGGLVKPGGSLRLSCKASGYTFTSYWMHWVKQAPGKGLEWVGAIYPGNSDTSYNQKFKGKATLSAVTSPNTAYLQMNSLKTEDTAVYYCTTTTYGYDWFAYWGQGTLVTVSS VL: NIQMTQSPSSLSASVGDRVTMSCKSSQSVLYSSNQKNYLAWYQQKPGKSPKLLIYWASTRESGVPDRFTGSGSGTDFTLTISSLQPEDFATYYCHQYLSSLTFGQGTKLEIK
2
VH5/VL0 Agly-hIgG1(T299A) (antibody, V domains shown, also called H5/L0) VH: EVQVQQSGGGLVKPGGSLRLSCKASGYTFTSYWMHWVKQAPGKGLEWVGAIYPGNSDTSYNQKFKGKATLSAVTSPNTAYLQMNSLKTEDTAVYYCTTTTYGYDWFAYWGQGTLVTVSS VL: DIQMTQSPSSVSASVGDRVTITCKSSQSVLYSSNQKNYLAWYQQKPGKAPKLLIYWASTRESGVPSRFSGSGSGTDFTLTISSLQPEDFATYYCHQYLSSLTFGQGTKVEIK
2.8

Now examine the next entry.
Req: Please report the recorded IC50 for VH0/VL1 Agly-hIgG1(T299A) (antibody, V domains shown, also called H0/L1) VH: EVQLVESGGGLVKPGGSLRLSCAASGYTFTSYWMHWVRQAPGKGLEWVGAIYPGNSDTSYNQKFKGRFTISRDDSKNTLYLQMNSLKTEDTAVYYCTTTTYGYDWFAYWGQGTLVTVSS VL: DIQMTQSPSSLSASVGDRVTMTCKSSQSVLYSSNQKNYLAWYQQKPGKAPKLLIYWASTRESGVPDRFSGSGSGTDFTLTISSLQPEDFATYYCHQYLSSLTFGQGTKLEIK .
Resp: 14.2
